The reported measurements were obtained from ChEMBL document CHEMBL4627283.

Assay: Half life in mouse liver microsomes in presence of NADPH
Assay type: ADME, Microsome
Quantity Measured: half-life (min)
Give the value, in units of min, as a plain number.

Entry CN1CCN(C(=O)c2ccc(/C=C3\SC(=S)N(c4cccc(C(F)(F)F)c4)C3=O)cc2)CC1 : reported half-life = ?
1.7

Reported half-life for CN1CCN(C(=O)c2ccc(/C=C3\SC(=S)N(c4cccc([N+](=O)[O-])c4)C3=O)cc2)CC1 : what is it?
1.8

// returns reported half-life for input O=C(c1ccc(/C=C2\SC(=S)N(c3cccc(OC(F)(F)F)c3)C2=O)cc1)N1CCOCC1
23.9

// query half-life value for entry O=C(O)c1ccc(/C=C2\SC(=S)N(c3cccc(C(F)(F)F)c3)C2=O)cc1
12.6

Field request: half-life | item: CC(C)NCC(O)COc1cccc2ccccc12 (centres undefined) [PROPRANOLOL]
1.7

Request the reported half-life associated with O=C(c1ccc(/C=C2\SC(=S)N(c3cccc(C(F)(F)F)c3)C2=O)cc1)N1CCC(O)CC1
4

What value of half-life has been recorded for this entry: CN1CCN(C(=O)c2ccc(/C=C3\SC(=S)N(c4cccc(OC(F)(F)F)c4)C3=O)cc2)CC1
3.7

====

Test: Oral bioavailability in Sprague-Dawley rat administered as single dose
Format: ADME, organism-based
Settings: in vivo
Quantity Measured: bioavailability

Dear colleague, I am looking for the recorded bioavailability of the following compound: O=C(O)c1ccc(/C=C2\SC(=S)N(Cc3cccc(C(F)(F)F)c3)C2=O)cc1
27%

====

Organism: Homo sapiens
Test: Selectivity index, ratio of inhibition of NLRP3 inflammasome (unknown origin) activation in bone marrow derived macrophage cells at 10 uM to inhibition of CFTR in human HT-29 cells at 20 uM
Assay type: cell-based
Record form. Attribute: Selectivity Index. Fill in for each entry.
Answer as a number with no unit attached.

Please report the recorded Selectivity Index for O=C(O)c1ccc(/C=C2\SC(=S)N(c3cccc(C(F)(F)F)c3)C2=O)cc1 .
0.83

For the molecule shown here, CN1CCN(C(=O)c2ccc(/C=C3\SC(=S)N(c4cccc([N+](=O)[O-])c4)C3=O)cc2)CC1 , give the reported Selectivity Index.
1.23

Dear colleague, I am looking for the recorded Selectivity Index of the following molecule: O=C(c1ccc(/C=C2\SC(=S)N(c3cccc(OC(F)(F)F)c3)C2=O)cc1)N1CCOCC1
1.1

// query Selectivity Index value for entry O=C(Nc1ccccc1)c1ccc(/C=C2\SC(=S)N(c3cccc(C(F)(F)F)c3)C2=O)cc1
1.19

// lookup Selectivity Index for CN1CCN(C(=O)c2ccc(/C=C3\SC(=S)N(c4cccc(C(F)(F)F)c4)C3=O)cc2)CC1
1.05

So what does the record say about Selectivity Index for O=C(c1ccc(/C=C2\SC(=S)N(c3cccc(C(F)(F)F)c3)C2=O)cc1)N1CCOCC1 ?
1.09

Would you mind telling me what Selectivity Index value was observed for CN1CCN(C(=O)c2ccc(/C=C3\SC(=S)N(c4cccc(OC(F)(F)F)c4)C3=O)cc2)CC1 ?
1.1

Request the reported Selectivity Index associated with O=C(c1ccc(/C=C2\SC(=S)N(c3cccc(C(F)(F)F)c3)C2=O)cc1)N1CCC(O)CC1
1.11

====

Target: Cystic fibrosis transmembrane conductance regulator (Homo sapiens)
Assay: Inhibition of CFTR in human HT-29 cells assessed as effect on intracellular chloride efflux at 20 uM relative to control
Assay type: cell-based
I'd appreciate it if you could supply inhibition values for the items below.

// query inhibition value for entry O=C(Nc1ccccc1)c1ccc(/C=C2\SC(=S)N(c3cccc(C(F)(F)F)c3)C2=O)cc1
27%

Which inhibition reading was recorded for the molecule O=C(O)c1ccc(/C=C2\SC(=S)N(Cc3cccc(F)c3)C2=O)cc1 ?
> 10%

Which value of inhibition has been reported for O=C(O)c1ccc(/C=C2\SC(=S)N(Cc3cccnc3)C2=O)cc1 in the records?
> 10%
